These entries and their values trace back to patent EP0944629B1.

- Test system: A2780 S
- experimentNotes: two cell line test procedure (sulforhodamine B cytotoxicity), A2780 S
- Format: cell-based
- conditionLabel: A2780 S cells, 48 hours exposure

querySmiles | IC50 (µg/ml) A2780 S
Cl.Cl.O=C(NCCNCCO)c1cccn2c(=O)c3cc(-c4ccccc4)ccc3nc12 | 0.80 µg/mL
CN(C)CCNC(=O)c1cccn2c(=O)c3ccc(-c4cccc(N)c4)cc3nc12 | 0.50 µg/mL
CN(C)CCNC(=O)c1cccn2c(=O)c3cc(-c4cccc(C(F)(F)F)c4)ccc3nc12 | 1.10 µg/mL
CN(C)CCNC(=O)c1cccn2c(=O)c3cc(-c4cc5ccccc5c5ccccc45)ccc3nc12 | 4.10 µg/mL
Cl.Cl.Cl.Nc1cccc(-c2ccc3nc4c(C(=O)NCCNCCO)cccn4c(=O)c3c2)c1 | 0.60 µg/mL
